Data provenance: PubChem BioAssay

System: Wnt5a (protein binding on small-molecule microarray)
Experiment: Wnt5a binders on small-molecule microarray, primary screen, biophysical, 635/667 nm fluorescence (AID 1142);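 also: fluorescence read at 667 nm with signal to noise per printed feature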
Conditions: 635 nm fluorescence, higher = more signal
# reported composite z-score; entries follow
Output spec: single numeric token, no unit.

In the examples that follow, each entry is paired with its recorded composite z-score.
CCN1C(=O)[C@H]2[C@H]3[C@H](O)[C@H](O)CC(=NO[C@@H]4O[C@H](CO)[C@@H](O)[C@H](O)[C@H]4O)[C@@H]3CC[C@H]2C1=O ... -0.215
CC(=O)OC[C@H]1O[C@@H](ON=C[C@@H](C)[C@H](OCc2ccccc2)C(C)C)[C@H](OC(C)=O)[C@@H](OC(C)=O)[C@@H]1OC(C)=O ... 0.235
CC(C)=NOCc1cccc(-c2cc(-c3ccccc3)no2)c1 ... 0.118
CCN1C(=O)[C@H]2[C@H]3[C@H](O)C=CC(=O)[C@@H]3CC[C@H]2C1=O ... 0.213
CO[C@H]([C@@H](C)[C@H](OC)c1ccccc1)[C@H](C)[C@@H](OC)[C@H](C)C(C)=O ... -0.183
CO[C@H]1COC(=O)[C@@H]2CCCN2C(=O)CC=C[C@@H](C)[C@H](OC)COC(=O)CC=C[C@@H]1C ... 0.191

For `COc1ccc([Si](C)(C)[C@@H]2[C@@H](CCO)O[C@]3(C(=O)N(Cc4ccc(NC(C)=O)cc4)c4ccccc43)[C@H]2C)cc1` the compound record lists composite z-score as 0.913

// composite z-score value for `O=C1[C@H]2[C@H]3[C@H](O)[C@H](O)CC(=NOCc4ccccc4)[C@@H]3CC[C@H]2C(=O)N1C1CCCCC1` : 0.0062
